# measured-on: Substance-P receptor (Homo sapiens, UniProt P25103)
# Sequence (P25103 whole entry): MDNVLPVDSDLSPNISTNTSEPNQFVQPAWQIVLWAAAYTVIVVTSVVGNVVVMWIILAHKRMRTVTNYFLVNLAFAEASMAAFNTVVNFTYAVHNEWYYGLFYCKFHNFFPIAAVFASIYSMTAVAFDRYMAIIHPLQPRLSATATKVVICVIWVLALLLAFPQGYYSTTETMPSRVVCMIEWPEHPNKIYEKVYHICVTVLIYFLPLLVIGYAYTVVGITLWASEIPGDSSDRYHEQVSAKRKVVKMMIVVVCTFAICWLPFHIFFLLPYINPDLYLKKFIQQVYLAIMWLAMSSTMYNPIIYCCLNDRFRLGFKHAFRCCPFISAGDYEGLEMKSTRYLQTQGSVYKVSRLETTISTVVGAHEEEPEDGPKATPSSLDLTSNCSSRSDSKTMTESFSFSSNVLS
# test: Binding affinity against recombinant human tachykinin receptor 1 in CHO cells using [3H]-Sar SP as radioligand
Recorded Ki for the following molecules
Field: numeric (pM). Do not append units.

Examples with their reported Ki follow.
{"smiles-data": "CO/N=C(\\CN(C)C(=O)c1cc(Cl)cc(Cl)c1)[C@H](CCN1CCC(N2CCCN(CC(N)=O)C2=O)CC1)c1ccc(Cl)c(Cl)c1", "reported-value": 300}
{"smiles-data": "CNC(=O)CN1CCCN(C2CCN(CC[C@@H](/C(CN(C)C(=O)c3cc(Cl)cc(Cl)c3)=N/OC)c3ccc(Cl)c(Cl)c3)CC2)C1=O", "reported-value": 900}
{"smiles-data": "CCOC(=O)[C@@H](Cc1ccc(O)cc1)N1CCCN(C2CCN(CC[C@@H](/C(CN(C)C(=O)c3cc(Cl)cc(Cl)c3)=N/OC)c3ccc(Cl)c(Cl)c3)CC2)C1=O", "reported-value": 1600}
{"smiles-data": "CO/N=C(\\CN(C)C(=O)c1cc(Cl)cc(Cl)c1)[C@H](CCN1CCC(N2CCCN(O)C2=O)CC1)c1ccc(Cl)c(Cl)c1", "reported-value": 1000}
{"smiles-data": "CO/N=C(\\CN(C)C(=O)c1cc(Cl)cc(Cl)c1)[C@H](CCN1CCC(N2CCCN([C@H](CO)C(N)=O)C2=O)CC1)c1ccc(Cl)c(Cl)c1", "reported-value": 600}

[Q] For the molecule shown here, CNC(=O)C[C@H]1CCCN(C2CCN(CC[C@@H](/C(CN(C)C(=O)c3cc(Cl)cc(Cl)c3)=N/OC)c3ccc(Cl)c(Cl)c3)CC2)C1=O , give the reported Ki.
[A] 1300

---

# measured-on: Neuromedin-K receptor (Homo sapiens)
# test: Binding affinity against recombinant human tachykinin receptor 3 in CHO cells using [125I][MePhe]-NKB as radioligand
readout-label: Ki (nM)
Field: numeric (nM). Do not append units.

Examples with their reported Ki follow.
{"smiles-data": "CO/N=C(\\CN(C)C(=O)c1cc(Cl)cc(Cl)c1)[C@H](CCN1CCC(n2c(=O)n(C)c3ccccc32)CC1)c1ccc(Cl)c(Cl)c1", "Ki / nM": 20}
{"smiles-data": "CCNC(=O)Cn1c(=O)n(C2CCN(CC[C@@H](/C(CN(CC)C(=O)c3cc(Cl)cc(Cl)c3)=N/OC)c3ccc(Cl)c(Cl)c3)CC2)c2ccccc21", "Ki / nM": 281}
{"smiles-data": "CO/N=C(\\CN(C)C(=O)c1cc(Cl)cc(Cl)c1)[C@H](CCN1CCC(N2CCCN([C@H](CO)C(N)=O)C2=O)CC1)c1ccc(Cl)c(Cl)c1", "Ki / nM": 0.3}

Now examine the next entry.
[Q] For the compound shown here, CCN(C/C(=N\OC)[C@H](CCN1CCC(n2c(=O)[nH]c3ccccc32)CC1)c1ccc(Cl)c(Cl)c1)C(=O)c1cc(Cl)cc(Cl)c1 , give the reported Ki.
[A] 97

---

# measured-on: Substance-K receptor (Homo sapiens, UniProt P21452)
# Sequence (P21452 whole entry): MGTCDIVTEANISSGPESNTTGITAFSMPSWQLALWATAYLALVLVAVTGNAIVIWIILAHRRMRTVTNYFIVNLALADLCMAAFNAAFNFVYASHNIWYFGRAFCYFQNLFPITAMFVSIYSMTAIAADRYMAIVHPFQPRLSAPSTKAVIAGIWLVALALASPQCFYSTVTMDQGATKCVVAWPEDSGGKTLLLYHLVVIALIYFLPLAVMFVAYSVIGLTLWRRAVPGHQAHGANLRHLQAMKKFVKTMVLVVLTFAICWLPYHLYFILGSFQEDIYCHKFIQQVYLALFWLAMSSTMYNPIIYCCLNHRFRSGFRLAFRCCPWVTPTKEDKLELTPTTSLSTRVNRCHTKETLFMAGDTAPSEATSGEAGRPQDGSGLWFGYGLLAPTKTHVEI
# test: Binding affinity against recombinant human tachykinin receptor 2 in CHO cells using [3H]-NKA as radioligand
readout-label: Ki (nM)
Field: numeric (nM). Do not append units.

Examples with their reported Ki follow.
{"smiles-data": "CCN(C/C(=N\\OC)[C@H](CCN1CCC(n2c(=O)n(CC(N)=O)c3ccccc32)CC1)c1ccc(Cl)c(Cl)c1)C(=O)c1cc(Cl)cc(Cl)c1", "Ki (nM)": 4.8}
{"smiles-data": "CO/N=C(\\CN(C)C(=O)c1cc(Cl)cc(Cl)c1)[C@H](CCN1CCC(N2CCCN(Cc3ccccn3)C2=O)CC1)c1ccc(Cl)c(Cl)c1", "Ki (nM)": 0.7}
{"smiles-data": "CCN(C/C(=N\\OC)[C@H](CCN1CCC(n2c(=O)n(Cc3ccccn3)c3ccccc32)CC1)c1ccc(Cl)c(Cl)c1)C(=O)c1cc(Cl)cc(Cl)c1", "Ki (nM)": 2.8}
{"smiles-data": "CO/N=C(\\CN(C)C(=O)c1cc(Cl)cc(Cl)c1)[C@H](CCN1CCC(N2CCCN(N3CCOCC3)C2=O)CC1)c1ccc(Cl)c(Cl)c1", "Ki (nM)": 0.9}
{"smiles-data": "CCNC(=O)Cn1c(=O)n(C2CCN(CC[C@@H](/C(CN(CC)C(=O)c3cc(Cl)cc(Cl)c3)=N/OC)c3ccc(Cl)c(Cl)c3)CC2)c2ccccc21", "Ki (nM)": 3.6}

[Q] For the compound shown here, CO/N=C(\CN(C)C(=O)c1cc(Cl)cc(Cl)c1)[C@H](CCN1CCC(N2CCCN([C@H](CO)C(N)=O)C2=O)CC1)c1ccc(Cl)c(Cl)c1 , give the reported Ki.
[A] 0.5

[Q] For the compound shown here, CCN(C/C(=N\OC)[C@H](CCN1CCC(n2c(=O)n(CCOC)c3ccccc32)CC1)c1ccc(Cl)c(Cl)c1)C(=O)c1cc(Cl)cc(Cl)c1 , give the reported Ki.
[A] 4

[Q] For the compound shown here, CO/N=C(\CN(C(=O)c1cc(Cl)cc(Cl)c1)C1CC1)[C@H](CCN1CCC(n2c(O)nc3ccccc32)CC1)c1ccc(Cl)c(Cl)c1 , give the reported Ki.
[A] 2.5

---

# measured-on: Neuromedin-K receptor (Homo sapiens)
# Sequence (P29371 whole entry): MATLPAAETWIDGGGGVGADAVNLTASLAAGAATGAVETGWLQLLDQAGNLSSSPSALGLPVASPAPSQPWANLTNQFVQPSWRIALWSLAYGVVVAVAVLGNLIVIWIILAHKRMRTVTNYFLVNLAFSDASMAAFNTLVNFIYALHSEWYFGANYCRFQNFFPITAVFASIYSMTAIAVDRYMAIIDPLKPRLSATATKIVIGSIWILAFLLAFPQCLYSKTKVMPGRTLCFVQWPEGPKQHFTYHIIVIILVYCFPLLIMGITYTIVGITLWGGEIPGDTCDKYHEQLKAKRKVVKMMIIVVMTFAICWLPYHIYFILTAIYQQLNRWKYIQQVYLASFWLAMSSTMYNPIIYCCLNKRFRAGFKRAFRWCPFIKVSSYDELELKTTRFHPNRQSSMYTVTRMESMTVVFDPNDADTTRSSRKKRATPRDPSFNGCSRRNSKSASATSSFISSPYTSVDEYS
# test: Binding affinity against recombinant human tachykinin receptor 3 in CHO cells using [125I][MePhe]-NKB as radioligand
readout-label: pKi
The value called pKi is obtained by taking minus log10 of the concentration in mol/L.

Examples with their reported pKi follow.
{"smiles-data": "CCN(C/C(=N\\OC)[C@H](CCN1CCC(n2c(=O)n(CC(N)=O)c3ccccc32)CC1)c1ccc(Cl)c(Cl)c1)C(=O)c1cc(Cl)cc(Cl)c1", "pKi": 6.78}
{"smiles-data": "CCOC(=O)[C@@H](Cc1ccc(O)cc1)N1CCCN(C2CCN(CC[C@@H](/C(CN(C)C(=O)c3cc(Cl)cc(Cl)c3)=N/OC)c3ccc(Cl)c(Cl)c3)CC2)C1=O", "pKi": 7.96}
{"smiles-data": "CCN(C/C(=N\\OC)[C@H](CCN1CCC(n2c(=O)n(CC#N)c3ccccc32)CC1)c1ccc(Cl)c(Cl)c1)C(=O)c1cc(Cl)cc(Cl)c1", "pKi": 6.17}
{"smiles-data": "CO/N=C(\\CN(C)C(=O)c1cc(Cl)cc(Cl)c1)[C@H](CCN1CCC(N2CCCN(CC(=N)NO)C2=O)CC1)c1ccc(Cl)c(Cl)c1", "pKi": 9.30}
{"smiles-data": "CO/N=C(\\CN(CCF)C(=O)c1cc(Cl)cc(Cl)c1)[C@H](CCN1CCC(n2c(=O)n(CC(=O)O)c3ccccc32)CC1)c1ccc(Cl)c(Cl)c1", "pKi": 6.52}

[Q] For the compound shown here, CO/N=C(\CN(C)C(=O)c1cc(Cl)cc(Cl)c1)[C@H](CCN1CCC(N2CCCN(CCNS(C)(=O)=O)C2=O)CC1)c1ccc(Cl)c(Cl)c1 , give the reported pKi.
[A] 9.40

[Q] For the compound shown here, CO/N=C(\CN(C)C(=O)c1cc(Cl)cc(Cl)c1)[C@H](CCN1CCC(n2c(=O)[nH]c3ccccc32)CC1)c1ccc(Cl)c(Cl)c1 , give the reported pKi.
[A] 8.00

[Q] For the compound shown here, CCN(C/C(=N\OC)[C@H](CCN1CCC(n2c(=O)n(CC(=O)NCCOC)c3ccccc32)CC1)c1ccc(Cl)c(Cl)c1)C(=O)c1cc(Cl)cc(Cl)c1 , give the reported pKi.
[A] 6.02

[Q] For the compound shown here, CO/N=C(\CN(C)C(=O)c1cc(Cl)cc(Cl)c1)[C@H](CCN1CCC(N2CCCN(O)C2=O)CC1)c1ccc(Cl)c(Cl)c1 , give the reported pKi.
[A] 9.15

[Q] For the compound shown here, CO/N=C(\CN(C(=O)c1cc(Cl)cc(Cl)c1)C1CC1)[C@H](CCN1CCC(n2c(O)nc3ccccc32)CC1)c1ccc(Cl)c(Cl)c1 , give the reported pKi.
[A] 6.99

[Q] For the compound shown here, CO/N=C(\CN(C)C(=O)c1cc(Cl)cc(Cl)c1)[C@H](CCN1CCC(n2c(=O)n(CC(=O)OC)c3ccccc32)CC1)c1ccc(Cl)c(Cl)c1 , give the reported pKi.
[A] 7.54

[Q] For the compound shown here, CO/N=C(\CN(C)C(=O)c1cc(Cl)cc(Cl)c1)[C@H](CCN1CCC(N2CCCN(Cc3nnn[nH]3)C2=O)CC1)c1ccc(Cl)c(Cl)c1 , give the reported pKi.
[A] 8.70

[Q] For the compound shown here, CO/N=C(\CN(C)C(=O)c1cc(Cl)cc(Cl)c1)[C@H](CCN1CCC(N2CCCN(C)C2=O)CC1)c1ccc(Cl)c(Cl)c1 , give the reported pKi.
[A] 9.10

[Q] For the compound shown here, CCN(C/C(=N\OC)[C@H](CCN1CCC(n2c(=O)n(Cc3ccccn3)c3ccccc32)CC1)c1ccc(Cl)c(Cl)c1)C(=O)c1cc(Cl)cc(Cl)c1 , give the reported pKi.
[A] 6.51

[Q] For the compound shown here, CNC(=O)C[C@H]1CCCN(C2CCN(CC[C@@H](/C(CN(C)C(=O)c3cc(Cl)cc(Cl)c3)=N/OC)c3ccc(Cl)c(Cl)c3)CC2)C1=O , give the reported pKi.
[A] 9.52

[Q] For the compound shown here, CO/N=C(\CN(C)C(=O)c1cc(Cl)cc(Cl)c1)[C@H](CCN1CCC(N2CCCN(CC(N)=O)C2=O)CC1)c1ccc(Cl)c(Cl)c1 , give the reported pKi.
[A] 9.40

[Q] For the compound shown here, CO/N=C(\CN(C)C(=O)c1cc(Cl)cc(Cl)c1)[C@H](CCN1CCC(N2CCCN(C(C)C)C2=O)CC1)c1ccc(Cl)c(Cl)c1 , give the reported pKi.
[A] 9.22

[Q] For the compound shown here, CO/N=C(\CN(C)C(=O)c1cc(Cl)cc(Cl)c1)[C@H](CCN1CCC(n2c(=O)n(CC(=O)O)c3ccccc32)CC1)c1ccc(Cl)c(Cl)c1 , give the reported pKi.
[A] 7.96

[Q] For the compound shown here, CNC(=O)CN1CCCN(C2CCN(CC[C@@H](/C(CN(C)C(=O)c3cc(Cl)cc(Cl)c3)=N/OC)c3ccc(Cl)c(Cl)c3)CC2)C1=O , give the reported pKi.
[A] 8.89

[Q] For the compound shown here, CCN(C/C(=N\OC)[C@H](CCN1CCC(n2c(=O)n(CCOC)c3ccccc32)CC1)c1ccc(Cl)c(Cl)c1)C(=O)c1cc(Cl)cc(Cl)c1 , give the reported pKi.
[A] 6.24
